For each of the compounds below, state its Inhibition.
- Tested on: HepG2
- PROCEDURE TEXT: GSK_TCMDC: Percent inhibition of human HepG2 cell line. Test compounds present at 10uM.
- Assay type: functional
# output: bare number, implied unit %

Look at this compound and give its reported Inhibition. Cc1cc(F)ccc1-c1nc(NCC(O)CNCCc2ccccc2)nc2c1ccc(=O)n2-c1c(F)cccc1F.O=C(O)C(F)(F)F (stereo not given)
25

// Inhibition lookup, key: COCc1nc(N)nc(N)c1-c1ccc(Cl)c(Cl)c1
4

Fill in: Inhibition of COc1ccc(-c2ccc(CNCc3ccccc3)cc2)cc1S(=O)(=O)NCCN1CCCC1.O=C(O)C(F)(F)F is ___
36

Would you mind telling me what Inhibition value was observed for Cc1ccc(C)c(Cn2ccc3nc(N)nc(N)c32)c1 ?
65

# query: Inhibition of entry CN(C)CC(=O)Nc1cccc(Nc2nccc(NCC(O)c3ccccc3)n2)c1 (stereo not given)
30

====

- Tested on: Plasmodium falciparum
- PROCEDURE TEXT: GSK_TCMDC: Inhibition of Plasmodium falciparum Dd2 in whole red blood cells, using parasite LDH activity as an index of growth. Test compounds present at 2uM
- Type: functional
VALUE KIND: Inhibition (%)
Your answer should be a plain number; it is taken to be in %.

Would you mind telling me what Inhibition value was observed for CC[C@H](NC(=O)c1ccc(NC(=O)OC(C)(C)C)cc1)C(=O)N[C@@H](CO)C(=O)NCCCCc1ccccc1 ?
94

I have this compound here, O=C(NCCc1ccc(Cl)c(Cl)c1)C1CCCN(C(=O)c2ccc(O)c(-c3ccc(Cl)c(Cl)c3)c2)C1 (stereo not drawn) , and I need its recorded Inhibition.
65

Data request, read-out Inhibition, for c1ccc(Oc2ccc(Nc3ccnc(Nc4cccc(CNCCCN5CCOCC5)c4)n3)cc2)cc1
50

Look up Inhibition: Cl.O=C(OCC1CCN(Cc2ccccc2)C1)c1ccc(Cl)cc1 (stereo not drawn)
4

May I ask what Inhibition has been recorded for O=c1c(Br)ccccc1Br ?
41

Would you kindly share the measured Inhibition for CS(=O)(=O)Nc1cccc(-c2cnc3[nH]cc(-c4cc(N)cc(C(=O)O)c4)c3c2)c1 ?
96

Sample CN1CCN(c2nsc3ccc(-c4ccc(OCCN5CCCC5)cc4)cc23)CC1.O=C(O)C(F)(F)F — what was its Inhibition?
99

If you can, please state the reported Inhibition value of Cc1cc(NC(=O)NCCN2CCC(NC(=O)c3ccc(F)cc3)CC2)c2ccccc2n1 .
76

Entry under review: COc1cccc(C(=O)N2CCN(Cc3cccc(NC(=O)c4cccs4)c3)CC2)c1.O=C(O)C(F)(F)F . Reported Inhibition?
95

What value of Inhibition has been recorded for this entry: Nc1ncc(-c2cccc(OCc3ccccc3)c2)cc1-c1nnc2ccc(Cl)nn12
7

Fill blank: measured Inhibition of the compound CN1CCN(CCCCCCNc2c3ccccc3nc3ccccc23)CC1.Cl is ____.
0

Reported Inhibition for NC1CCN(CCNCc2cccc(-c3ccc(-c4nc5cc(C(F)(F)F)ccc5[nH]4)cc3)c2)C1.O=C(O)C(F)(F)F (stereo not drawn) : what is it?
75

// lookup Inhibition for Clc1ccc(-c2cc3c(NCc4ccncc4)nccc3s2)cc1
8

Would you kindly share the measured Inhibition for Cc1cccc(-n2c(Nc3ccc(C)c(Cl)c3)nc3ccc(S(=O)(=O)NC(C)C(C)C)cc32)c1 (stereo not drawn) ?
97

Tell me the measured Inhibition of Cc1cc(N/N=C/c2cccc([N+](=O)[O-])c2)c2ccccc2n1 , please.
98

Quick one: Inhibition of O=c1cc(NCCCNCc2cccc(C(F)(F)F)c2Cl)[nH]c2ccccc12 ?
24

Could you tell me which Inhibition is on file for Cc1ccccc1C1CCN(C2CCC(NC(=O)c3ccc4c(c3)-c3nocc3C(C)O4)CC2)CC1 (stereo not drawn) ?
37

Data request, read-out Inhibition, for O=C(Nc1ccc2c(c1)CCN2C1CCN(Cc2ccc(F)cc2Cl)C1)c1ccco1 (stereo not drawn)
96

What value of measured Inhibition is listed for CCCN(Cc1ccc(OCC)cc1)Cc1cc(=O)c2cc(Cl)ccc2[nH]1 ?
82

Recorded Inhibition of COc1cc2c(c(Cl)c1OC)CCN(Cc1ccccc1)CC2c1ccc(NC(=O)C(F)(F)F)cc1 (stereo not drawn) , please.
79

GET /values?readout=Inhibition&item= Cc1ccc(O)cc1Nc1ccnc2cc(-c3ccc(CN4CCCCC4)o3)ccc12
99

Param item = O=C(Nc1ccc(S(=O)(=O)N2CCCC2)cc1)c1cc(-c2cccnc2)nc2ccc(Cl)cc12 ; retrieve measured Inhibition.
95

Consider the compound shown here: Cl.N=C(N)Nc1ccc(NC(=O)Nc2ccc(NC(=N)N)cc2)cc1 What is its recorded Inhibition?
74

Bench note: what Inhibition did CC(=O)c1sc(Cc2nc3ccccc3s2)nc1C show?
88

Requested field: Inhibition. Item: O=C(NCCN1CCC(NC(=O)c2ccc(-c3ccccn3)s2)CC1)c1cccc(C(F)(F)F)c1.O=C(O)C(F)(F)F
24

GET /values?readout=Inhibition&item= COc1ccc2nccc([C@@H](O)CN3CCC(NCc4nc5cc(F)cc(F)c5[nH]4)CC3)c2c1.O=C(O)C(=O)O
64

Query (compound): Nc1ncc(-c2ccccc2)cc1-c1cccc2ncccc12.O=C(O)C(F)(F)F ; field requested: Inhibition
99

Fill blank: measured Inhibition of the compound O=C(N[C@@H](CC1CCCCC1)C(=O)NC1CCCc2ccccc21)c1ccc(O)c(-c2cccc(C(F)(F)F)c2)c1 (stereo partly drawn) is ____.
99

GET /values?readout=Inhibition&item= O=C(Nc1ccc(OC2CCN(Cc3ccsc3)CC2)c(Cl)c1)c1ccc(F)cc1.O=C(O)C(F)(F)F
83

What value of Inhibition has been recorded for this entry: CN(C)S(=O)(=O)n1ncc2c3c(N)nc(N)nc3ccc21.Cl
0

I have this compound here, C#CC[C@@H](NC(N)=O)C(=O)O , and I need its recorded Inhibition.
0

Requested field: Inhibition. Item: COc1ccc(C[C@H](N)C(=O)N[C@H]2[C@@H](O)[C@H](n3cnc4c(N(C)C)ncnc43)O[C@@H]2CO)cc1 [PUROMYCIN]
100

Name the reported Inhibition value associated with the compound Cc1cnc(N2CCN(CC3CCN(C)CC3)CC2)nc1Oc1ccc(-n2ccnc2)cc1.O=C(O)C(F)(F)F
66

// query Inhibition value for entry Cc1nc(-c2cccc3c(NC(=O)Nc4ccc5nccc(N6CCN(C)CC6)c5c4)cccc23)no1.Cl
84

Using the record for Cc1ccc(O)cc1Nc1ccnc2cc(-c3csc(CNCCN4CCOCC4)n3)ccc12 , report its Inhibition.
99

Which Inhibition is listed for CC(C)(C)c1ccc(CN2CCC(NC(=O)c3cc(-c4cccc(C(F)(F)F)c4)cs3)C2)cc1.O=C(O)C(F)(F)F (stereo not drawn) ?
85

Please give the measured Inhibition for this compound: COc1cc(Cc2cnc(N)nc2N)cc(OCCCOc2ccccc2)c1OC
2

What measured Inhibition goes with Cl.Ic1cc(CNC2CCCCC2)ccc1OCc1cccc(COc2ccc(CNC3CCCCC3)cc2I)c1 ?
34

====

Record form. Attribute: Inhibition. Fill in for each entry.
- Tested on: HepG2
- PROCEDURE TEXT: GSK_TCMDC: Percent inhibition of human HepG2 cell line. Test compounds present at 10uM.
- Assay type: functional
Express your answer in %, writing the number without its unit.

Would you mind telling me what Inhibition value was observed for O=C(CCOc1ccccc1)NCC1CCCO1 (stereo not given) ?
0

Record request: Inhibition value, item CCN(CC)CCN(Cc1ccc(-c2ccc(C(F)(F)F)cc2)cc1)C(=O)Cn1c(SCc2ccc(F)cc2)nc(=O)c2sccc21.O=C(O)C(O)C(O)C(=O)O
51

Reported Inhibition, molecule COc1ccccc1C1CN(CCNC(=O)c2nc(C)c[nH]2)Cc2ccccc2O1 (stereo not given) : ____
4

Item under review: CC(C)N1CCN(C(CN2CCN(CCCOc3ccc(-c4ccccc4)cc3)CC2)c2ccc(F)cc2)CC1.Cl (stereo not given) . Reported Inhibition?
100

# lookup: Inhibition of COc1ccc(CNc2ncnc3c2[nH]c2ccc(F)cc23)cc1
38

====

- Tested on: Plasmodium falciparum
- PROCEDURE TEXT: GSK_TCMDC: Inhibition of Plasmodium falciparum Dd2 in whole red blood cells, using parasite LDH activity as an index of growth. Test compounds present at 2uM
- Type: functional
VALUE KIND: Inhibition (%)
State just the number; it will be interpreted in %.

Which value of Inhibition has been reported for N#Cc1cccc(-c2nc(NCc3cccc(C(F)(F)F)c3)nn2-c2cccc(C(F)(F)F)c2)c1 in the records?
88

Requested read-out: Inhibition. Entry: O=C(NC1CCN(c2ccc(F)cc2[N+](=O)[O-])CC1)c1cccs1
91

Consider the molecule CCOC(=O)NC1=NC(=N)N(OCc2ccc(Cl)c(Cl)c2)C(C)(C)N1 and give its measured Inhibition.
90

// returns reported Inhibition for input CCOc1c(CNCCCNc2cc(O)c3ccccc3n2)cc(Br)cc1OC
18

Look up Inhibition for this molecule: CCC(C)NC(=O)CN1CN(c2ccccc2)C2(CCN(C(=O)c3ccc(C(C)(C)C)cc3)CC2)C1=O (stereo not given)
100
